Measured On: Dipeptidyl peptidase 4 (Rattus norvegicus) (UniProt P14740)
Sequence (P14740 whole entry, looked up): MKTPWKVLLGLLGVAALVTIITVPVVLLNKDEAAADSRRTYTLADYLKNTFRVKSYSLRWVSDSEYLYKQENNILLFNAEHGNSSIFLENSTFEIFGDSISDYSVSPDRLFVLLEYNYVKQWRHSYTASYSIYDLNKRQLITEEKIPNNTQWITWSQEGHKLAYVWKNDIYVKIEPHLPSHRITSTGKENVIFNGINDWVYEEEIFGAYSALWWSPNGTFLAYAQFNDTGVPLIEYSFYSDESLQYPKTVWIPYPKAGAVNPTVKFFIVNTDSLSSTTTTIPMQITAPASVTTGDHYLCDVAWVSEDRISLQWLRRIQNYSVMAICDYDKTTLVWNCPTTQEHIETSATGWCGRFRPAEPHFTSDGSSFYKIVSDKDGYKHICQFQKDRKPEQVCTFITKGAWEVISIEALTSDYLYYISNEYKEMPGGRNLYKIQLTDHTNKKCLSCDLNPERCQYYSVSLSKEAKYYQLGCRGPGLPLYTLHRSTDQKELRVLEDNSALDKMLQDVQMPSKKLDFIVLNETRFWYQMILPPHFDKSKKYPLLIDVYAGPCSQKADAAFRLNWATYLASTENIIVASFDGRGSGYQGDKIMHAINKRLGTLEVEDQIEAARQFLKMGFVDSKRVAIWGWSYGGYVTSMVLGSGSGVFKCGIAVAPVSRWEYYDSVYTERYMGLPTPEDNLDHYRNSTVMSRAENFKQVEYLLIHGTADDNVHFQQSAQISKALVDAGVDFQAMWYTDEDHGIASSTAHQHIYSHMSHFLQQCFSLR
Experiment Summary: Inhibitory activity against Dipeptidylpeptidase IV in rat
Parameters: concentration or dose not given beside the values
Experimental Setup: concentration not given here
Listed here: items and their measured inhibition.
Measured Property: inhibition (%)

line_notation=Cc1ccc(NC(=O)Nn2c(=O)c(=O)[nH]c3cc([N+](=O)[O-])ccc32)cc1 unit_annotation=% experimental_result=1
line_notation=O=C(Nn1c(=O)c(=O)[nH]c2cc(Cl)ccc21)NS(=O)(=O)c1ccccc1 unit_annotation=% experimental_result=17.3
line_notation=O=C(Nc1ccccc1)Nn1c(=O)c(=O)[nH]c2cc([N+](=O)[O-])ccc21 unit_annotation=% experimental_result=3.6
line_notation=O=C(NC(=O)c1ccccc1)Nn1c(=O)c(=O)[nH]c2cc(Cl)ccc21 unit_annotation=% experimental_result=14.8
line_notation=O=C(NC(=O)c1ccccc1)Nn1c(=O)c(=O)[nH]c2ccccc21 unit_annotation=% experimental_result=13
line_notation=O=c1[nH]c2ccccc2n(NC(=S)Nc2cccc(Cl)c2)c1=O unit_annotation=% experimental_result=32.1
line_notation=Cc1ccccc1S(=O)(=O)NC(=O)Nn1c(=O)c(=O)[nH]c2cc(Cl)ccc21 unit_annotation=% experimental_result=26.4
line_notation=CC/N=C(\S)Nn1c(=O)c(=O)[nH]c2ccccc21 unit_annotation=% experimental_result=40.1

----------
Measured On: Dipeptidyl peptidase 4 (Rattus norvegicus) (UniProt P14740)
Experiment Summary: Inhibitory activity against Dipeptidylpeptidase IV in rat
Parameters: concentration or dose not given beside the values
Experimental Setup: concentration not given here
Outcome: met for inhibition of at least 20%; not met for anything lower.

line_notation=Cc1ccccc1S(=O)(=O)NC(=O)Nn1c(=O)c(=O)[nH]c2cc(Cl)c(Cl)cc21 cat="not met"
line_notation=Cc1ccc(S(=O)(=O)NC(=O)Nn2c(=O)c(=O)[nH]c3ccccc32)cc1 cat="not met"
line_notation=O=C(Nn1c(=O)c(=O)[nH]c2cc([N+](=O)[O-])ccc21)NS(=O)(=O)c1ccccc1 cat=met
line_notation=Cc1ccccc1S(=O)(=O)NC(=O)Nn1c(=O)c(=O)[nH]c2ccccc21 cat="not met"
line_notation=O=c1[nH]c2ccccc2n(NC(=S)NCc2ccccc2)c1=O cat=met
line_notation=O=c1[nH]c2ccccc2n(NC(=S)Nc2ccccc2)c1=O cat=met
line_notation=O=C(Nn1c(=O)c(=O)[nH]c2cc(Cl)c(Cl)cc21)NS(=O)(=O)c1ccccc1 cat=met
line_notation=Cc1ccc(S(=O)(=O)NC(=O)Nn2c(=O)c(=O)[nH]c3cc([N+](=O)[O-])ccc32)cc1 cat=met

----------
Measured On: Dipeptidyl peptidase 4 (Rattus norvegicus)
Experiment Summary: Inhibitory activity against Dipeptidylpeptidase IV in rat
Parameters: concentration or dose not given beside the values
Experimental Setup: concentration not given here
Measured Property: inhibition (%)

line_notation=O=c1[nH]c2cc(Cl)c(Cl)cc2n(NC(=S)Nc2ccccc2)c1=O measured_property=inhibition experimental_result=50
line_notation=O=C(NC(=S)Nn1c(=O)c(=O)[nH]c2cc(Cl)c(Cl)cc21)c1ccccc1 measured_property=inhibition experimental_result=20.5
line_notation=O=C(Nc1ccc(F)cc1F)Nn1c(=O)c(=O)[nH]c2cc([N+](=O)[O-])ccc21 measured_property=inhibition experimental_result=5.1
line_notation=O=C(Nc1cccc(Cl)c1)Nn1c(=O)c(=O)[nH]c2cc([N+](=O)[O-])ccc21 measured_property=inhibition experimental_result=6.6
line_notation=O=C(Nn1c(=O)c(=O)[nH]c2cc([N+](=O)[O-])ccc21)NS(=O)(=O)c1ccc(Cl)cc1 measured_property=inhibition experimental_result=66.8
line_notation=Cc1ccccc1S(=O)(=O)NC(=O)Nn1c(=O)c(=O)[nH]c2cc([N+](=O)[O-])ccc21 measured_property=inhibition experimental_result=79.1
line_notation=Cc1ccc(S(=O)(=O)NC(=O)Nn2c(=O)c(=O)[nH]c3cc(Cl)c(Cl)cc32)cc1 measured_property=inhibition experimental_result=21
line_notation=O=C(NC(=O)c1ccccc1)Nn1c(=O)c(=O)[nH]c2cc([N+](=O)[O-])ccc21 measured_property=inhibition experimental_result=72.2
line_notation=O=C(Nn1c(=O)c(=O)[nH]c2ccccc21)NS(=O)(=O)c1ccccc1 measured_property=inhibition experimental_result=14.1
